# System: human hepatocytes
# assay.notes: Metabolism and metabolite formation in hepatocytes
# applied.conditions: human hepatocytes, 10 µM BPI-460372, 4 h incubation
parameter.measured: UV (314 nm) Peak Areas Relative Abundance (%)
Express your answer in %, writing the number without its unit.

Answered examples (3):
>>> df
                                   compound       assay_system  units_of_measure  recorded_measurement
0  NC(CCC(=O)NC(CSCC(F)C(=O)N1CC(n2c(=O)n(-c3ccc(C(F)(F)F)cc3)c3nccnc32)C1)C(=O)NCC(=O)O)C(=O)O (stereo not drawn)  human hepatocytes                 %                  3.01
1  O=C(C(O)CO)N1CC(n2c(=O)n(-c3ccc(C(F)(F)F)cc3)c3nccnc32)C1 (stereo not drawn)  human hepatocytes                 %                  2.36
2  C=C(F)C(=O)N1CC(n2c(=O)n(-c3ccc(C(F)(F)F)cc3)c3nccnc32)C1  human hepatocytes                 %                 76.96

*Q* Missing value: UV (314 nm) Peak Areas Relative Abundance, human hepatocytes, entry CC(=O)N1CC(n2c(=O)n(-c3ccc(C(F)(F)F)cc3)c3nccnc32)C1 . Fill in?
*A* 1.48

*Q* Missing value: UV (314 nm) Peak Areas Relative Abundance, human hepatocytes, entry O=c1n(-c2ccc(C(F)(F)F)cc2)c2nccnc2n1C1CNC1 . Fill in?
*A* 11.47

*Q* Missing value: UV (314 nm) Peak Areas Relative Abundance, human hepatocytes, entry CC(=O)NC(CSCC(F)C(=O)N1CC(n2c(=O)n(-c3ccc(C(F)(F)F)cc3)c3nccnc32)C1)C(=O)O (stereo not drawn) . Fill in?
*A* 1.48

*Q* Missing value: UV (314 nm) Peak Areas Relative Abundance, human hepatocytes, entry NC(CSCC(F)C(=O)N1CC(n2c(=O)n(-c3ccc(C(F)(F)F)cc3)c3nccnc32)C1)C(=O)O (stereo not drawn) . Fill in?
*A* 3.01

###

# assay.notes: in vitro
# applied.conditions: monkey, hepatocytes
Entries and their half-life at 1 µM values follow.
Express your answer in min, writing the number without its unit.

Answered examples (2):
In [3]: df
Out[3]:
                                   compound  recorded_measurement
0  C=C(F)C(=O)N1CC(n2c(=O)n(-c3ccc(C(F)(F)F)cc3)c3nccnc32)C1 [BPI-460372]                   167
1  C[C@]12CC[C@H]3[C@@H](CCC4=CC(=O)CC[C@@]43C)[C@@H]1CC[C@@H]2O [Testosterone, testosterone]                  11.5

Next item in the queue.
*Q* Entry under review: O=c1ccc2ccc(O)cc2o1 [7-hydroxycoumarin] . Reported half-life at 1 µM?
*A* 17.8

###

# System: cysteine S-conjugate β-lyase
# assay.notes: Effect of cysteine S-conjugate β-lyase inhibitor AOAA on the metabolism of BPI-460372 (rat urine)
# applied.conditions: 20 mg/kg BPI-460372 + 100 mg/kg AOAA, once daily 21 days, urine 0-48 h on day 21
Entries and their Area ratio in rat urine, mean (%CV) values follow.

Answered examples (5):
>>> print(df.to_string())
                                   molecule  recorded_measurement
0  O=c1n(-c2ccc(C(F)(F)F)cc2)c2nccnc2n1C1CNC1             1.41 (48)
1  NC(CSCC(F)C(=O)N1CC(n2c(=O)n(-c3ccc(C(F)(F)F)cc3)c3nccnc32)C1)C(=O)O (stereo not shown)             0.12 (37)
2  C=C(F)C(=O)N1CC(n2c(=O)n(-c3ccc(C(F)(F)F)cc3)c3nccnc32)C1             1.48 (69)
3  O=C(C(O)CO)N1CC(n2c(=O)n(-c3ccc(C(F)(F)F)cc3)c3nccnc32)C1 (stereo not shown)             19.0 (57)
4  CC(=O)NC(CSCC(O)C(=O)N1CC(n2c(=O)n(-c3ccc(C(F)(F)F)cc3)c3cncnc32)C1)C(=O)O (stereo not shown)             0.06 (20)

*Q* Missing value: Area ratio in rat urine, mean (%CV), cysteine S-conjugate β-lyase, entry CC(=O)NC(CSCC(F)C(=O)N1CC(n2c(=O)n(-c3ccc(C(F)(F)F)cc3)c3nccnc32)C1)C(=O)O (stereo not shown) . Fill in?
*A* 0.08 (40)

*Q* Missing value: Area ratio in rat urine, mean (%CV), cysteine S-conjugate β-lyase, entry CSCC(O)C(=O)N1CC(n2c(=O)n(-c3ccc(C(F)(F)F)cc3)c3nccnc32)C1 (stereo not shown) . Fill in?
*A* 0.23 (23)

###

# assay.notes: Metabolite identification in rat plasma, urine, feces and bile
# Format: in vivo, SD rats
# applied.conditions: oral 6 mg/kg BPI-460372, average of male and female pooled samples
Short version: Relative abundance of MS peak areas, Rat Urine 0-48 h at least 1% is 1 (yes), less is 0 (no).

>>> print(df.to_string())
                                   molecule  class_label
0  CCC(=O)N1CC(n2c(=O)n(-c3ccc(C(F)(F)F)cc3)c3nccnc32)C1 [M391]       0 (no)
1  O=C(C(O)CO)N1CC(n2c(=O)n(-c3ccc(C(F)(F)F)cc3)c3nccnc32)C1 (centres unmarked) [M423 (BPI-460456)]      1 (yes)

*Q* Please check the record CC(=O)NC(CSCC(O)C(=O)N1CC(n2c(=O)n(-c3ccc(C(F)(F)F)cc3)c3cncnc32)C1)C(=O)O (centres unmarked) [M568] and state if its Relative abundance of MS peak areas, Rat Urine 0-48 h is at or above 1%.
*A* 1 (yes)

*Q* Please check the record NC(CSCC(F)C(=O)N1CC(n2c(=O)n(-c3ccc(C(F)(F)F)cc3)c3nccnc32)C1)C(=O)O (centres unmarked) [M528] and state if its Relative abundance of MS peak areas, Rat Urine 0-48 h is at or above 1%.
*A* 0 (no)

###

# assay.notes: in vitro
# applied.conditions: beagle, dog, hepatocytes
parameter.measured: half-life at 1 µM (min)
Express your answer in min, writing the number without its unit.

Answered examples (2):
In [3]: df
Out[3]:
                                   compound  parameter_measured  units_of_measure  recorded_measurement
0   O=c1ccc2ccc(O)cc2o1 [7-hydroxycoumarin]   half-life at 1 µM               min                  29.8
1  C=C(F)C(=O)N1CC(n2c(=O)n(-c3ccc(C(F)(F)F)cc3)c3nccnc32)C1 [BPI-460372]   half-life at 1 µM               min                   192

Next item in the queue.
*Q* Entry under review: C[C@]12CC[C@H]3[C@@H](CCC4=CC(=O)CC[C@@]43C)[C@@H]1CC[C@@H]2O [Testosterone, testosterone] . Reported half-life at 1 µM?
*A* 14.1

###

# Test system: monkey hepatocytes
# assay.notes: Metabolism and metabolite formation in hepatocytes
# Type: in vitro ADME, cynomolgus monkey
# applied.conditions: cynomolgus monkey hepatocytes, 10 µM BPI-460372, 4 h incubation
parameter.measured: UV (314 nm) Peak Areas Relative Abundance (%)
Express your answer in %, writing the number without its unit.

Answered examples (5):
                                   molecule  recorded_measurement
0  O=C(C(O)CO)N1CC(n2c(=O)n(-c3ccc(C(F)(F)F)cc3)c3nccnc32)C1 (centres unmarked)                  2.01
1  NC(CCC(=O)NC(CSCC(F)C(=O)N1CC(n2c(=O)n(-c3ccc(C(F)(F)F)cc3)c3nccnc32)C1)C(=O)NCC(=O)O)C(=O)O (centres unmarked)                  3.01
2  NC(CSCC(F)C(=O)N1CC(n2c(=O)n(-c3ccc(C(F)(F)F)cc3)c3nccnc32)C1)C(=O)O (centres unmarked)                  3.01
3  CC(=O)N1CC(n2c(=O)n(-c3ccc(C(F)(F)F)cc3)c3nccnc32)C1                  2.50
4  CC(O)C(=O)N1CC(n2c(=O)n(-c3ccc(C(F)(F)F)cc3)c3nccnc32)C1 (centres unmarked)                  3.61

*Q* Entry under review: O=c1n(-c2ccc(C(F)(F)F)cc2)c2nccnc2n1C1CNC1 . Reported UV (314 nm) Peak Areas Relative Abundance?
*A* 16.99

*Q* Entry under review: C=C(F)C(=O)N1CC(n2c(=O)n(-c3ccc(C(F)(F)F)cc3)c3nccnc32)C1 . Reported UV (314 nm) Peak Areas Relative Abundance?
*A* 63.98
